B1: CPEB3 Ribozyme (parent)
chain: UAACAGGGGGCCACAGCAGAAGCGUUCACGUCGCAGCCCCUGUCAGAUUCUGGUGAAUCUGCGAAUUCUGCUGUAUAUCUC

variants of: B1; test: self-cleavage, relative activity (ratio to wild type); higher = more cleavage; in vitro, sequencing

# record-sequence, self-cleavage
records = [
    ("UAACAGGGGGCCACAGCAGGAGCGUUCACGUCGCAGCCCCUGUCCGAUUCUGGUGAAUCUGCGAAUUCUGCUGUAUAUCUC [A20G A45C]", 0.24),
    ("UAACAGGGGGCCACAGUAGAAGCGUACACGUCGCAGCCCCUGUCAGAUUCUGGUGAAUCUGCGAAUUCUGCUGUAUAUCUC [C17U U26A]", 0.6),
    ("UAACAGGGGGCCACAGCAGAAGCGUUCACGUCGCAGCCCCUGUCAGAUUCUGGUGAAUCUGCGAAUACUACUGUAUAUCUC [U67A G70A]", 0.45),
    ("UAACAGGGGGCCACAGCAGAAGCGUUCACGUCGCAGCCCCCGUCAGGUUCUGGUGAAUCUGCGAAUUCUGCUGUAUAUCUC [U41C A47G]", 1),
    ("UAACAGGGGGCCACAGCAGAAGCGUUCACGUCACAGCCCCUGUCAGAUUCUGGUGAAUCUGCGAAUUCUGCGGUAUAUCUC [G33A U72G]", 0.24),
    ("UAACAGGGGGCCACAGCAGAAGCGUUCACGUCGCAUCCCCUGUCUGAUUCUGGUGAAUCUGCGAAUUCUGCUGUAUAUCUC [G36U A45U]", 0.19),
    ("UAACAGGGGGCCAUAGCAGAAGCGUUCACGUCGCAGCCCCUGUCAGAUUCUGGUGGAUCUGCGAAUUCUGCUGUAUAUCUC [C14U A56G]", 1.23),
    ("UAACAGGGGGCCACAGCAGAAGCGUGCACGUCGCAGCCCCUGUCAGAUUCUGGUGAAUCUGCGAGUUCUGCUGUAUAUCUC [U26G A65G]", 0.35),
    ("UAACAGGGGGCCACAGCAGAAGCGUUCACGUCGCAGCCCCUGUCAGAUUCAGGUGAAUCUGCGAUUUCUGCUGUAUAUCUC [U51A A65U]", 0.21),
    ("UAACAGGGGGCCACAGCAGAAGCGUUCACGUCGCAGCCCCCGUCAGAUUCUGGUGAAACUGCGAAUUCUGCUGUAUAUCUC [U41C U58A]", 0.47),
    ("UAACAGGGCGCCACAGCAGAAGCGUUCACGUCGCAGCCCCUGUCAGAUUCUGGUGAAUCCGCGAAUUCUGCUGUAUAUCUC [G9C U60C]", 0.25),
    ("UAACAGGGGGGCACAGCAGAAGCGUUCACGUCGCAGCCGCUGUCAGAUUCUGGUGAAUCUGCGAAUUCUGCUGUAUAUCUC [C11G C39G]", 0.11),
    ("UAACAGGGGGCCACAGCAGAAGCGUUCACGUCGCAGCCCCUGUCAGAUUCUGGUGAAUCUUCGAAUUCUGCCGUAUAUCUC [G61U U72C]", 0.72),
    ("UAACAGGGGGCCACAGCAGAGGCAUUCACGUCGCAGCCCCUGUCAGAUUCUGGUGAAUCUGCGAAUUCUGCUGUAUAUCUC [A21G G24A]", 0.24),
    ("UAACAGGGGGCCACAGCAGAAGCGUACACGUCGCAGCCCCUGUCAGAUUUUGGUGAAUCUGCGAAUUCUGCUGUAUAUCUC [U26A C50U]", 0.47),
    ("UAACAGCGGGCCACAGCAGAAGCGUUCACUUCGCAGCCCCUGUCAGAUUCUGGUGAAUCUGCGAAUUCUGCUGUAUAUCUC [G7C G30U]", 0.14),
    ("UGACAGGGGGCCACAGCAGAAUCGUUCACGUCGCAGCCCCUGUCAGAUUCUGGUGAAUCUGCGAAUUCUGCUGUAUAUCUC [A2G G22U]", 0.07),
    ("UAACAGGGGGCCACAGCAGAAGCGUUCACGUUGCAGCCCCUGUCAGAUUCUGGUGAAACUGCGAAUUCUGCUGUAUAUCUC [C32U U58A]", 0.14),
    ("UAACAGGGGGCCACAGCAGAAGCGUUCACGUCGCAGCCCCUGUCAGAUUCUGUUGAAUCUGCGAAUUCCGCUGUAUAUCUC [G53U U69C]", 0.59),
    ("UAACAGGGGGCCACAGCAGAAGCGUUCACGUCGCAGCCCCUGUCAGAUUCUGGUGAAUCUGCGAAUUCAGCUGCAUAUCUC [U69A U74C]", 0.96),
    ("UAACAGGGGGCCACAGCAGAAGCGUUCACUUCGCAGCCCCUGUCAGAUUCUGGUGAAUCUGCGAAUUCUGCUGUAUGUCUC [G30U A77G]", 0.16),
    ("UAACAGUGGGCCACAGUAGAAGCGUUCACGUCGCAGCCCCUGUCAGAUUCUGGUGAAUCUGCGAAUUCUGCUGUAUAUCUC [G7U C17U]", 0.2),
    ("UAACAGGGGGCCACAGCAGAAGCGUUCACGUCCCAGCCCCUGUCAGAUUCUGGUGAAUCUGCGAAUUCUGCUGUAUACCUC [G33C U78C]", 0.09),
    ("UAACAGGGGGCCAAAGCAGAAGCGUUCACGUCGCAGCCCCUGUCAGAUCCUGGUGAAUCUGCGAAUUCUGCUGUAUAUCUC [C14A U49C]", 0.23),
    ("UAACAGGGGGCCACAGCAGAAGCGUUCAUGUCGCAGUCCCUGUCAGAUUCUGGUGAAUCUGCGAAUUCUGCUGUAUAUCUC [C29U C37U]", 0.34),
    ("UAACAGGGGGCCACAGCAGAAGCGUCCACGUCGCAGCCCCUGUCAGAUUCUGGUGUAUCUGCGAAUUCUGCUGUAUAUCUC [U26C A56U]", 0.28),
    ("UAACAGGGGGCCAUAGCAGAAGCGUUCACGUCGCAGCCCCUGUCAGAUUCUGGCGAAUCUGCGAAUUCUGCUGUAUAUCUC [C14U U54C]", 1.25),
    ("UAACAGGGGGACACAGCAGAAGCGUUCACGCCGCAGCCCCUGUCAGAUUCUGGUGAAUCUGCGAAUUCUGCUGUAUAUCUC [C11A U31C]", 0.23),
    ("UAACAGGGGGCCACAGCAGGAGCGUUCACGUCGCAGCCCCUGUCAGAUUCUGGUGAAUCUGCGAAUUCAGCUGUAUAUCUC [A20G U69A]", 0.34),
    ("UAACAGGGGGCCACAGCAGAAGCGUUCACGUAGCAGCCCCUGUCAGAUUCUGGUGAAUCUGCGAAUUCUGCUGUAUAUCUC [C32A]", 0.29),
    ("UAACAGGGGGCCACAGCAGAAGCGUUCACGUCGCCGCCCCUGUCAGAUUCUGGUGGAUCUGCGAAUUCUGCUGUAUAUCUC [A35C A56G]", 0.77),
    ("UAACAGGGGGACACAGCAGAAGCGAUCACGUCGCAGCCCCUGUCAGAUUCUGGUGAAUCUGCGAAUUCUGCUGUAUAUCUC [C11A U25A]", 0.45),
    ("UAACAGGGGGCCACAGCAGAAGCGUUCACGUCGCAGCCUCUGUCAGAUUCUGGUGAAUCCGCGAAUUCUGCUGUAUAUCUC [C39U U60C]", 0.39),
    ("UAACAGGGGGCCACAGCAGAAGCGUUCACGUCGCAGCCCCUGGCAAAUUCUGGUGAAUCUGCGAAUUCUGCUGUAUAUCUC [U43G G46A]", 0.37),
    ("UUACAGGGGGCCACAGCAGAAGCGUUCACGUCGCAGCCCCUGUCAGAUUCUGGUGAAUCCGCGAAUUCUGCUGUAUAUCUC [A2U U60C]", 0.47),
    ("UAACAGGGGGCCACAGCAGAAGCGUUCACGUCGCAGCCCCUGUCAGAUUCUGCUGAAUCUGCGAAUUCUGCUGUACAUCUC [G53C U76C]", 1.06),
    ("UAACAGGGGGCCACCGCAGAAGCGUUCACGUCGCAGCCCCUGUCAGAUUCUGGUGAAUCUGCGAAUCCUGCUGUAUAUCUC [A15C U67C]", 0.18),
    ("UAACAGGGGGCCAAAGCAGAAGCGUUCACGUCGCAGCCCCUGUCAGAUUCUGGUGAAUCUGCGAAUUCUGCUGUAUAUCUC [C14A]", 1.17),
    ("UAACAGGGGGCCACAGCAGAAGCGUUCACGUCGCAGCCCCCGUCAGAUUCUGGUGAAUCUGCCAAUUCUGCUGUAUAUCUC [U41C G63C]", 1.06),
    ("UAACAGGGGGCCACAGCAGAAGCGUUGACGUCGCAGCCCCUGUCAGAUUCUGGUGAAUCUGCGAAUUCUGCUGUGUAUCUC [C27G A75G]", 0.3),
    ("UAACAGGGGGCCACAGCAUAAGCGUUCACGUCGCAGCCCCUGUCAGAUUCUGGUGAAUCUGCGAAUUCUGCUAUAUAUCUC [G19U G73A]", 0.51),
    ("UAACAGGGGGCCACAGCAGAAGCGUUCACGUCGCAGCCCCUGUCAGAUUCUGGUGAAUCUGAGGAUUCUGCUGUAUAUCUC [C62A A64G]", 0.25),
    ("UGACAAGGGGCCACAGCAGAAGCGUUCACGUCGCAGCCCCUGUCAGAUUCUGGUGAAUCUGCGAAUUCUGCUGUAUAUCUC [A2G G6A]", 0.59),
    ("UAACAGGGGGCCAAAGCAGAAGCGUUCACGUCGCAGCCCCUGUCAGAUUCUGGUGAAUCUGCGAAUUCUGCUGUACAUCUC [C14A U76C]", 0.94),
    ("UAACAGGGGGCCACAGCAGAAGCGUUCACGUCGCAGCCCCUGUCACAUUCUGGUGAAUCAGCGAAUUCUGCUGUAUAUCUC [G46C U60A]", 0.11),
    ("UAACAGGGGGCCACAGCAGAAGCGUUCACGCCGCAGCCCCUGUCAGAUUCUGGUGAAUCUGCGAAUUUUGCUGUAUAUCUC [U31C C68U]", 0.75),
]

Data origin, for the record: the RNAGym collection of RNA variant scans (doi:10.1093/nar/gkz1192)
